Source listed as patent US20220411501A1.

For each of the binders below, state its MFI.
biological target: T1, CD117 (c-Kit, stem cell factor receptor) on HEL or TF1 human erythroleukemia cells (human, UniProt P10721 26-976); experiment: flow cytometry on HEL cells; 1 µl/2.10^5 cells
T1 construct: whole, on cells
T1 sequence (P10721 26-976): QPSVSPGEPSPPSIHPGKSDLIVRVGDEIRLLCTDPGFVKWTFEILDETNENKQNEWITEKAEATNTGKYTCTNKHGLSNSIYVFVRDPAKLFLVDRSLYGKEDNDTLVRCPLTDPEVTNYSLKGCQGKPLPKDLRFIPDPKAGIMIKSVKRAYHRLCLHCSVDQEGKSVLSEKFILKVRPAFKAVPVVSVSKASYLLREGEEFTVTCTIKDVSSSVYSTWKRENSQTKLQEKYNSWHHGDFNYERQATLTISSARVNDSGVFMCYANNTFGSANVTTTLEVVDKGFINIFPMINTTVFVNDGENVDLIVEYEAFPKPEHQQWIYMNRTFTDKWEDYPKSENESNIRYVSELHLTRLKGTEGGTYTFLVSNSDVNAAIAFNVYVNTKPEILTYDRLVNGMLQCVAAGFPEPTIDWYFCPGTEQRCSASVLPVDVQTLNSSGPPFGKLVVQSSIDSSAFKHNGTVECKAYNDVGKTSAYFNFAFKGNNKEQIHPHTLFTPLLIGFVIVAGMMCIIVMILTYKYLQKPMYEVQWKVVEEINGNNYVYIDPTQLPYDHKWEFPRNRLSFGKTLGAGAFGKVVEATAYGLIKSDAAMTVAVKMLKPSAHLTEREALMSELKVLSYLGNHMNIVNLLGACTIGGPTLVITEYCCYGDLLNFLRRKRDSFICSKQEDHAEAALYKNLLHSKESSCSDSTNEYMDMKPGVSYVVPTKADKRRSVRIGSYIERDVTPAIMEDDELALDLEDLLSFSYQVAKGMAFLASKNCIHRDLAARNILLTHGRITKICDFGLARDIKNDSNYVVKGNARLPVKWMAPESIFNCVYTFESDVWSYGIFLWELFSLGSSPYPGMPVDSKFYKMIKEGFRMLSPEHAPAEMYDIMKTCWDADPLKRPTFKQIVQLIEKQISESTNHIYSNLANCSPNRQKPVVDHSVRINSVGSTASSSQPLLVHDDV
Lab note: write the figure by itself, no unit.

Note to self: MFI recorded for humanized antibody 36-5 Hz121 (antibody, human IgG1, V domains shown, The variable regions were cloned into vector p3U containing the human IgG1 constant region; also called H-36.5Hz30 + L-36.5Hz31) VH: QVQLVQSGAEVKKPGASVKVSCKASGYTFTSYWMNWVRQAPGQGLEWMGRIDPSDSEIHYNQKFKGRVTMTVDTSTSTAYMELSSLRSEDTAVYYCARDYGSDYYAMDYWGQGTLVTVSS VL: QIVLTQSPAFQSVTPGEKVTITCSASQSVSYMHWYQQKSGTSPKLLIYSTSNLTSGVPSRFSGSGSGTDYTLTISSLEAEDAATYYCHQWSSYPFGGGTKVEIK was 228

Record summary for humanized antibody 36-5 Hz114 (antibody, human IgG1, V domains shown, The variable regions were cloned into expression vector p3U containing the human IgG1 constant region; also called H-36.5Hz27 + L-36.5Hz31) VH: QVQLVQSGAEVKKPGASVKVSCKASGYTFTSYWMNWVRQAPGQGLEWMGRIDPSDSEIHYNQKFKDKATLTVDKSTSTAYMELSSLRSEDTAVYYCARDYGSDYYAMDYWGQGTLVTVSS VL: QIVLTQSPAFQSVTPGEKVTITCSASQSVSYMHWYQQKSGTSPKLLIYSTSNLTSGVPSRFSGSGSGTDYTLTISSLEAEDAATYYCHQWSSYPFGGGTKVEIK : reported MFI = 228

Entry humanized antibody 36-5 Hz128 (antibody, human IgG1, V domains shown, The variable regions were cloned into vector p3U containing the human IgG1 constant region; also called H-36.5Hz31 + L-36.5Hz31) VH: QVQLVQSGAEVKKPGASVKVSCKASGYTFTSYWMNWVRQAPGQGLEWIGRIDPSDSEIHYNQKFKGRVTMTVDTSTSTAYMELSSLRSEDTAVYYCARDYGSDYYAMDYWGQGTLVTVSS VL: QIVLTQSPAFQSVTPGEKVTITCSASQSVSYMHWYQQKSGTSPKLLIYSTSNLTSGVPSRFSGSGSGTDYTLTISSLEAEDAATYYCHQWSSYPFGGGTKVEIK , MFI reported as 240

GET /value?item= ch36-05 chimeric monoclonal antibody (antibody, human IgG1, kappa, V domains shown, Murine VH + human IgG1 Fc; murine VL + human Kappa; also called chR036-05; chR036.05) VH: QVQLQQSGAELVKPGAPVKLSCKASGYTFTRYWMNWVKQRPGRGLEWIGRIDPSDSEIHYNQNFKDKATLTVDKSSSTAYIQLSSLTSEDSAVYYCARDYGSDYYAMDYWGQGTSVTVSS VL: QIVLTQSPAIMSASLGEEITLTCSASSSVSYMHWYQQKSGTSPKLLIYSTSNLTSGVPSRFSGSGSGTFYSLTISSVEAEDAADYYCHQWSSYPFGGGTKLEIKR &field=MFI returns 259
